MEASUREMENT TARGET: Protein LANA1 (Human herpesvirus 8 type P (isolate GK18)) (UniProt Q9QR71)
Sequence (Q9QR71 whole entry, looked up): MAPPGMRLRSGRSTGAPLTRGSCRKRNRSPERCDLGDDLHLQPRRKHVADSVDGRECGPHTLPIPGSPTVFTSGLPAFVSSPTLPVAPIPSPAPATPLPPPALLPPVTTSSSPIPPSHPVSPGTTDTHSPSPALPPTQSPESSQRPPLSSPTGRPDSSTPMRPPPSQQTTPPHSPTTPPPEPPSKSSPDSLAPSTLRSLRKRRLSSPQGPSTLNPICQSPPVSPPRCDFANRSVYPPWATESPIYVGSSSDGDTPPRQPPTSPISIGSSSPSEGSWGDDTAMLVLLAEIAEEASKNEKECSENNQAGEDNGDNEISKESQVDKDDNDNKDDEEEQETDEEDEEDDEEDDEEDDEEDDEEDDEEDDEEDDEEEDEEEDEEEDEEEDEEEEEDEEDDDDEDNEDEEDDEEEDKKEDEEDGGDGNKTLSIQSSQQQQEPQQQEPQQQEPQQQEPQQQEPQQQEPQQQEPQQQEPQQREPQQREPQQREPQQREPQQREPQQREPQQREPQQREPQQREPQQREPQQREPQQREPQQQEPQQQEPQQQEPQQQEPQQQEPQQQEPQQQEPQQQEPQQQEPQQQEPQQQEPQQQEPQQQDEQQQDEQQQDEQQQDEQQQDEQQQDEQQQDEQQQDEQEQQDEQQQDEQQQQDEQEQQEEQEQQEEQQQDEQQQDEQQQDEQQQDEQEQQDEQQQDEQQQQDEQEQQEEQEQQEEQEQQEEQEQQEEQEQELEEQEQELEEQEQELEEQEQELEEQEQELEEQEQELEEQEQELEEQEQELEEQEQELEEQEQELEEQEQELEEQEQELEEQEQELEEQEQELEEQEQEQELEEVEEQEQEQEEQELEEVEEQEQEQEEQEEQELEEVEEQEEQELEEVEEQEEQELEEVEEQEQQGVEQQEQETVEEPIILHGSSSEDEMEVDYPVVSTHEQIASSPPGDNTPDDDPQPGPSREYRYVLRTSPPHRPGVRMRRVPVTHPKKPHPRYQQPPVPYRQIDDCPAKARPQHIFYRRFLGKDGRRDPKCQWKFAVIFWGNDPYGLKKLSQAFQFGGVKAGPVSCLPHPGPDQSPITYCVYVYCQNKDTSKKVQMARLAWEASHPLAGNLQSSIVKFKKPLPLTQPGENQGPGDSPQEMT
TEST DESCRIPTION: blockers of LANA interaction with H2A/H2B – biochemical, FP readout, HTS, primary screen (AID 2629)
CONDITION DETAILS: cell-free LANA-H2A/H2B peptide, fluorescence polarization, hits give high values, concentration not given here
The campaign covered roughly 320,000 compounds. About 1,900 (0.59%) were called active. What follows is part of a selection rich in actives, with near analogues and random picks from the rest.

{"MOLECULE": "NC(=O)C[n+]1cccc(C(N)=O)c1", "inhibition": "-3.37% (inactive)"}
{"MOLECULE": "CC(C)c1ccc(Nc2nnc(SCC(=O)c3nnc(-c4ccccc4)o3)s2)cc1", "inhibition": "-16.3% (inactive)"}
{"MOLECULE": "CCOc1ccc(C2=CC(c3ccccc3)n3ncnc3N2)cc1 (configuration not stated)", "inhibition": "-0.926% (inactive)"}
{"MOLECULE": "Brc1ccc(C2=CC(c3ccco3)n3ncnc3N2)cc1 (configuration not stated)", "inhibition": "35% (active)"}
{"MOLECULE": "CC1Cc2ccccc2N1C(=O)CSc1nnc(-c2ccc(S(=O)(=O)N3CCCC3)cc2)n1C (configuration not stated)", "inhibition": "14.5% (active)"}
{"MOLECULE": "O=C(c1ccccc1)c1cccn1CC(=O)N1CCN(c2ccc(F)cc2)CC1", "inhibition": "5.58% (inactive)"}
{"MOLECULE": "COc1ccc(C(=O)NC2CC2)cc1OC1CCN(Cc2cnn(C)c2)CC1", "inhibition": "2.53% (inactive)"}
{"MOLECULE": "O=C(Cc1ccccc1Cl)N1CCOCC1", "inhibition": "-0.189% (inactive)"}
{"MOLECULE": "COc1c(Br)cc2c(C)c(C(=O)N3CCOCC3)oc2c1Br", "inhibition": "-7.01% (inactive)"}
{"MOLECULE": "Cc1ccc(C)c(NC(=O)COC(=O)Cn2c(C)csc2=O)c1", "inhibition": "-0.0986% (inactive)"}
{"MOLECULE": "CCS(=O)(=O)n1nc(-c2ccccc2)nc1SCc1ccccc1", "inhibition": "0.944% (inactive)"}
{"MOLECULE": "CCN1C(=O)C(CC(=O)Nc2cc(C)ccc2C)SC1=Nc1ccc(S(N)(=O)=O)cc1 (configuration not stated)", "inhibition": "-5.5% (inactive)"}
{"MOLECULE": "O=C(N1CCCC1)C12CC3CC(C1)CC(C(=O)N1CCCC1)(C3)C2", "inhibition": "15.6% (active)"}
{"MOLECULE": "C=CCSc1nc2c(c(=O)[nH]c(=O)n2C)n1Cc1ccccc1", "inhibition": "-0.531% (inactive)"}
{"MOLECULE": "COc1cccc(NC(=O)C/C(C)=N/NC(=O)C2CCCCC2)c1", "inhibition": "3.19% (inactive)"}
{"MOLECULE": "CC1=C(C(=O)OCc2ccccc2)C(c2ccco2)n2ncnc2N1 (configuration not stated)", "inhibition": "-3.53% (inactive)"}
{"MOLECULE": "O=S(=O)(Nc1cc(Cl)ccc1N1CCOCC1)c1ccccc1Cl", "inhibition": "16.7% (active)"}
{"MOLECULE": "CCN(CC)CCN(C(=O)c1cccc([N+](=O)[O-])c1)c1nc2ccc(OC)cc2s1", "inhibition": "10.8% (active)"}
{"MOLECULE": "COc1cc(OC)c(OC)cc1CN1CCN(C(=O)c2cccc3ccccc23)CC1", "inhibition": "0.329% (inactive)"}
{"MOLECULE": "CCN1C(=O)C(=O)N(CC(=O)Nc2cc(C)ccc2C)C1=O", "inhibition": "65.4% (active)"}
{"MOLECULE": "O=C(NCC12CC3CC(C1)CC(CNC(=O)N1CCCC1)(C3)C2)N1CCCC1", "inhibition": "-3.32% (inactive)"}
{"MOLECULE": "O=C(O)CC(CC(=O)N1CCOCC1)c1ccccc1 (configuration not stated)", "inhibition": "4.19% (inactive)"}
{"MOLECULE": "CCOc1ccc2nc(N(CCCN(C)C)C(=O)c3ccc(C(=O)c4ccccc4)cc3)sc2c1", "inhibition": "2.47% (inactive)"}
{"MOLECULE": "COc1cc(C(=O)OC(C)C(=O)NCC2CCCCC2)cc(NC(=O)c2ccco2)c1OC (configuration not stated)", "inhibition": "1.94% (inactive)"}
{"MOLECULE": "CC1Cc2ccccc2N1C(=O)CSc1nnc(C2CC2)n1C (configuration not stated)", "inhibition": "5.57% (inactive)"}
{"MOLECULE": "Cc1nnc(SC(C(=O)c2ccccc2)c2ccccc2)[nH]c1=O (configuration not stated)", "inhibition": "-2.85% (inactive)"}
{"MOLECULE": "CCc1nn(CCCC(=O)NC(C)c2ccccc2)c(=O)c2cc3occc3n12 (configuration not stated)", "inhibition": "1.99% (inactive)"}
{"MOLECULE": "C[N+](C)(C)CCNC(=O)c1cc[n+](Cc2ccccc2)c(/C=N/O)c1", "inhibition": "-2.86% (inactive)"}
{"MOLECULE": "CCOC(=O)c1cc2cc3ccccc3cc2oc1=O", "inhibition": "16.8% (active)"}
{"MOLECULE": "COc1ccc(C(=O)NC2CC2)cc1OC1CCN(C/C=C/c2ccccc2)CC1", "inhibition": "5.63% (inactive)"}
{"MOLECULE": "O=C(Nc1cccc(F)c1)NC1CCCCCCC1", "inhibition": "0.578% (inactive)"}
{"MOLECULE": "CCc1ccc(OCC(=O)NCC(c2ccc(Cl)cc2)N2CCCCC2)cc1 (configuration not stated)", "inhibition": "-1.04% (inactive)"}

* * *

Entries and their inhibition
MEASUREMENT TARGET: Protein LANA1 (Human herpesvirus 8 type P (isolate GK18)) (UniProt Q9QR71)
TEST DESCRIPTION: blockers of LANA interaction with H2A/H2B – biochemical, FP readout, HTS, primary screen (AID 2629)
CONDITION DETAILS: cell-free LANA-H2A/H2B peptide, fluorescence polarization, hits give high values, concentration not given here
The campaign covered roughly 320,000 compounds. About 1,900 (0.59%) were called active. The list comes from a sample in which actives are over-represented; it also holds close analogues and randomly drawn compounds.
MEASURE NAME: inhibition (%)

{"MOLECULE": "CC(C)NC(=O)Nc1cccc2c1O[C@@H](CN(C)S(=O)(=O)c1ccc(F)cc1)[C@@H](C)CN([C@H](C)CO)C2=O", "UNIT OF MEASURE": "%", "RESULT VALUE": -0.984}
{"MOLECULE": "Cc1nnc(SCc2ccc(C(=O)c3ccc(Cl)cc3)o2)n1-c1ccccc1", "UNIT OF MEASURE": "%", "RESULT VALUE": -1.68}
{"MOLECULE": "O=C(NCC1CCCO1)C1CCN(C2CCN(C(=O)C3CCCCC3)CC2)CC1 (stereo not drawn)", "UNIT OF MEASURE": "%", "RESULT VALUE": 0.649}
{"MOLECULE": "COc1ccccc1C(=O)N1CCNC(=O)C1CC(=O)Nc1ccc(Cl)cc1 (stereo not drawn)", "UNIT OF MEASURE": "%", "RESULT VALUE": -4.24}
{"MOLECULE": "CCn1c(SCC(=O)NNC(=O)c2ccc(OC)cc2)nnc1C(C)C", "UNIT OF MEASURE": "%", "RESULT VALUE": -0.104}
{"MOLECULE": "O=C(Nc1ccccn1)C1CCN(S(=O)(=O)c2ccccc2)CC1", "UNIT OF MEASURE": "%", "RESULT VALUE": -0.314}
{"MOLECULE": "COc1ccc(NC(=O)CC2C(=O)OCC3CCCCN32)cc1Cl (stereo not drawn)", "UNIT OF MEASURE": "%", "RESULT VALUE": 6.65}
{"MOLECULE": "COc1ccc(C(=O)NCCn2nc(C)cc2C)cc1OC1CCN(C(C)=O)CC1", "UNIT OF MEASURE": "%", "RESULT VALUE": 0.74}
{"MOLECULE": "CCCCSCCCNC(=O)C1CCC(CNS(=O)(=O)c2ccc(NC(C)=O)cc2)CC1 (stereo not drawn)", "UNIT OF MEASURE": "%", "RESULT VALUE": -3.44}
{"MOLECULE": "Cc1ccccc1CN1C(=O)c2ccccc2Sc2ccc(C(=O)NCCCN3CCOCC3)cc21", "UNIT OF MEASURE": "%", "RESULT VALUE": 19.6}
{"MOLECULE": "CCC1=Nc2cc(C(=O)NCCCN3CCOCC3)ccc2Sc2ccc(Br)cc21", "UNIT OF MEASURE": "%", "RESULT VALUE": 3.58}
{"MOLECULE": "COc1ccc(OC)c(C(=O)c2coc3ccc(O)c(CN4CCOCC4)c23)c1", "UNIT OF MEASURE": "%", "RESULT VALUE": -2.58}
{"MOLECULE": "CCc1c(C)nc2ncnn2c1N1CCC(C(=O)NCc2ccc3c(c2)OCO3)CC1", "UNIT OF MEASURE": "%", "RESULT VALUE": 0.84}
{"MOLECULE": "CC(=O)c1sc(N/N=C/c2ccc(C(C)C)cc2)nc1C", "UNIT OF MEASURE": "%", "RESULT VALUE": 2.17}
{"MOLECULE": "CCc1ccc2nc3sc(C(=O)Nc4nnc(CC)s4)c(N)c3cc2c1", "UNIT OF MEASURE": "%", "RESULT VALUE": -1.19}
{"MOLECULE": "COc1ccc(C(=O)NC(C)Cn2nc(C)cc2C)cc1OC1CCN(C(C)=O)CC1 (stereo not drawn)", "UNIT OF MEASURE": "%", "RESULT VALUE": 16.1}
{"MOLECULE": "Cc1ccc(NC(=O)c2sc3nc(N)c(C#N)cc3c2N)cc1", "UNIT OF MEASURE": "%", "RESULT VALUE": 14.6}
{"MOLECULE": "CC1(C(=O)O)CCC(C(=O)Nc2ccc(Cl)c(Cl)c2)C1(C)C (stereo not drawn)", "UNIT OF MEASURE": "%", "RESULT VALUE": -7.06}
{"MOLECULE": "COc1ccc(NC(=O)C2CCC(CNc3c(N4CCCCC4)c(=O)c3=O)CC2)c(OC)c1 (stereo not drawn)", "UNIT OF MEASURE": "%", "RESULT VALUE": 2.53}
{"MOLECULE": "COc1ccc(S(=O)(=O)N(C)C[C@H]2Oc3c(NC(=O)Nc4ccc5c(c4)OCO5)cccc3C(=O)N([C@H](C)CO)C[C@@H]2C)cc1", "UNIT OF MEASURE": "%", "RESULT VALUE": 16.9}
{"MOLECULE": "Cc1noc(C)c1COc1ccc(C(=O)NCCOc2ccccc2)cc1", "UNIT OF MEASURE": "%", "RESULT VALUE": 2.1}
{"MOLECULE": "O=C(NCCCN1CCOCC1)c1ccc2c(c1)N(Cc1cccc(F)c1)C(=O)c1ccccc1S2", "UNIT OF MEASURE": "%", "RESULT VALUE": -7.56}
{"MOLECULE": "CC(C)(C)OC(=O)C[C@@H]1C/C=C\\C[C@@H](CC(=O)N[C@H](CO)Cc2ccccc2)C(=O)NCCOC1=O", "UNIT OF MEASURE": "%", "RESULT VALUE": -192}
{"MOLECULE": "CC(=O)Nc1ccc(S(=O)(=O)NC2(C(F)(F)F)C(=O)Nc3c2c(=O)[nH]c(=O)n3Cc2ccccc2)cc1 (stereo not drawn)", "UNIT OF MEASURE": "%", "RESULT VALUE": -2.71}
{"MOLECULE": "O=C(COc1nc2ccccc2nc1N1CCOCC1)NCC(F)(F)F", "UNIT OF MEASURE": "%", "RESULT VALUE": 0.0185}
{"MOLECULE": "COc1ccc(/C(C)=N/N2CCOCC2)c(O)c1", "UNIT OF MEASURE": "%", "RESULT VALUE": 25.4}
{"MOLECULE": "O=C(COc1ccc(Cl)cc1)NCCSc1ccccc1", "UNIT OF MEASURE": "%", "RESULT VALUE": -4.08}
{"MOLECULE": "CN(C)C(=O)c1nc2ccc(Cl)cn2c1CNCc1cccc(OC(F)(F)F)c1", "UNIT OF MEASURE": "%", "RESULT VALUE": 1.63}
{"MOLECULE": "COc1ccc(S(=O)(=O)Nc2cccc3c2O[C@H](CN(C)S(=O)(=O)c2ccc(OC)cc2)[C@@H](C)CN([C@H](C)CO)C3=O)cc1", "UNIT OF MEASURE": "%", "RESULT VALUE": -1.79}
{"MOLECULE": "C[C@H](CO)N1C[C@H](C)[C@@H](CN(C)S(=O)(=O)c2ccc(F)cc2)Oc2c(NC(=O)Nc3ccccc3)cccc2C1=O", "UNIT OF MEASURE": "%", "RESULT VALUE": 14.5}
{"MOLECULE": "Cc1onc(-c2ccccc2Cl)c1C(=O)NCCn1ccc2ccccc21", "UNIT OF MEASURE": "%", "RESULT VALUE": -5.8}
{"MOLECULE": "CCc1c(O)cc2n(c1=O)-c1ccccc1C2(C)C", "UNIT OF MEASURE": "%", "RESULT VALUE": 5.7}
{"MOLECULE": "CC(C)C(=O)NC(NC(=S)NC1CCS(=O)(=O)C1)C(Cl)(Cl)Cl (stereo not drawn)", "UNIT OF MEASURE": "%", "RESULT VALUE": 5.16}
